Data credit: paper PMC8243516

Biological target: recombinant mouse LPLA2 (PLA2G15) (Mus musculus)
Construct: purchased Proteos Inc. (Kalamazoo, MI)
Sequence (Q8VEB4 34-412): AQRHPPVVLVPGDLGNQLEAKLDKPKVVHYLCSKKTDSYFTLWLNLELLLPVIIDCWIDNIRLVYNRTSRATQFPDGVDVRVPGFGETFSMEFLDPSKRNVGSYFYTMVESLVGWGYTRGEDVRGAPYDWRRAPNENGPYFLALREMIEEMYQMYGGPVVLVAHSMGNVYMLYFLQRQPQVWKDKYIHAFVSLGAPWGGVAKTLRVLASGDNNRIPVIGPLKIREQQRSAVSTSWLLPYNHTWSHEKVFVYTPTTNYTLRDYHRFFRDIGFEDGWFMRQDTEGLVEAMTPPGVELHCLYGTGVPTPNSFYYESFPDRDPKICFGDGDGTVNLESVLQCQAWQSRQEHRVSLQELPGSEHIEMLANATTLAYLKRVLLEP
Assay: Transacylase activity of LPLA2 (1-O-acyl-N-acetylsphingosine synthase, cell-free liposome assay)
Type: biochemical
Details: LPLA2 dependent 1-O-acyl N-acetylsphingosine synthase activity; read-out: LPLA2 IC50
MEASURED ATTRIBUTE: IC50 (µM)
Numbers only here, please. The scale is µM.

COMPOUND	IC50 / µM
NNc1nncc2ccccc12 [Hydralazine]	100

Task: Which IC50 value belongs to NC(=O)N1c2ccccc2C=Cc2ccccc21 [Carbamazepine] ?
Result: 106

Task: One more compound: NCCc1cc(O)c(O)cc1O [6-Hydroxy-dopamine]
Result: 88

====

Target: recombinant mouse LPLA2 (PLA2G15) (Mus musculus, UniProt Q8VEB4)
Construct: purchased Proteos Inc. (Kalamazoo, MI)
Sequence (Q8VEB4 34-412): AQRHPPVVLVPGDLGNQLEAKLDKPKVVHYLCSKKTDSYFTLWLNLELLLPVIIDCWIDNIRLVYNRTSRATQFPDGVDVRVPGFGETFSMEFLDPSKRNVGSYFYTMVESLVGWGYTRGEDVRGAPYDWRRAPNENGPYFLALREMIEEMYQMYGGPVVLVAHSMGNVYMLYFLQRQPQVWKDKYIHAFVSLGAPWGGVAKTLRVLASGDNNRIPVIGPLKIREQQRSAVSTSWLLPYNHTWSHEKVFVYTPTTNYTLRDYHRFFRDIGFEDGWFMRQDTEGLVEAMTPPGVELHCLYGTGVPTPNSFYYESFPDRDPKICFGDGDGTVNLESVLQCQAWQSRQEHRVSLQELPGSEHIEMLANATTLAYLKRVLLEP
Experiment: Transacylase activity of LPLA2 (1-O-acyl-N-acetylsphingosine synthase, cell-free liposome assay)
Format: biochemical
Conditions: 1-O-acyl N-acetylsphingosine synthase activity, pH 4.5, DOPC/sulfatide liposomes; read-out: LPLA2 IC50
fulfilled if IC50 is below 20 µM. not fulfilled if not; exact matches included in not fulfilled.

COMPOUND	ASSIGNED CLASS
Cc1ccc(C(=O)Nc2ccc(S(=O)(=O)O)c3cc(S(=O)(=O)O)cc(S(=O)(=O)O)c23)cc1NC(=O)c1cccc(NC(=O)Nc2cccc(C(=O)Nc3cc(C(=O)Nc4ccc(S(=O)(=O)O)c5cc(S(=O)(=O)O)cc(S(=O)(=O)O)c45)ccc3C)c2)c1	not fulfilled
CC[C@H]1OC(=O)[C@H](C)[C@@H](O[C@H]2C[C@@](C)(OC)[C@@H](O)[C@H](C)O2)[C@H](C)[C@@H](O[C@@H]2O[C@H](C)C[C@H](N(C)C)[C@H]2O)[C@](C)(O)C[C@@H](C)C(=O)[C@H](C)[C@@H](O)[C@]1(C)O	not fulfilled
C1CCC(C(CC2CCCCN2)C2CCCCC2)CC1 (stereo not drawn)	fulfilled
CN(C)CCCN1c2ccccc2Sc2ccc(Cl)cc21	fulfilled
CCN(CC)CCOc1ccc(C(O)(Cc2ccc(Cl)cc2)c2ccc(C)cc2)cc1 (stereo not drawn)	fulfilled

For the next question, use this compound.
Task: IC50 strictly < 20 µM for this compound? `CC1=C(/C=C/C(C)=C/C=C/C(C)=C/CO)C(C)(C)CCC1`
Result: not fulfilled
